From: PubChem BioAssay (EPA / NIEHS)

Molecular target: Hepatocyte nuclear factor 6 (Homo sapiens) (UniProt Q9UBC0)
Sequence (Q9UBC0 whole entry, looked up): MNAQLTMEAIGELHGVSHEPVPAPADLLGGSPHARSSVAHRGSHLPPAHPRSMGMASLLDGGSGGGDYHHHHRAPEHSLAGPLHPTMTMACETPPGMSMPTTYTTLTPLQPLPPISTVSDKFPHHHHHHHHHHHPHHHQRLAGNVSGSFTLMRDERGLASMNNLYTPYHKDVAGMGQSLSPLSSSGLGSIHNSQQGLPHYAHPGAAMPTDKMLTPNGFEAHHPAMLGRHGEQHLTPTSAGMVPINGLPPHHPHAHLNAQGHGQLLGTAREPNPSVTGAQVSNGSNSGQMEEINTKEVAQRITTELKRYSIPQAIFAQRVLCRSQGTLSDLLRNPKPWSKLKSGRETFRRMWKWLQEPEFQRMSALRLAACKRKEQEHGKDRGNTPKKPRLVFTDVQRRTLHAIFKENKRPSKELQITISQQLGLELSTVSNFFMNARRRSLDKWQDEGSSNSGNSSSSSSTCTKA
Test: ATG_HNF6_CIS: Attagene CIS-FACTORIAL HepG2 Assay for human Hepatocyte Nuclear Factor 6 (HNF6) (AID 2282952)
Conditions: HepG2 Attagene cis-factorial HNF6 reporter transcription; actives raise or lower the signal
Active and inactive are the calls of the source. How the source made its calls: active means hit-call score of the fitted dose curve at least 0.9, where 1 is the maximum; inactive means score below 0.9.
Classes used: class 1 for active, class 0 for inactive

compound	system_name	assigned_class
CC[C@H](C)[C@H]1O[C@]2(C=C[C@@H]1C)C[C@@H]1C[C@@H](C/C=C(\C)[C@@H](O[C@H]3C[C@H](OC)[C@@H](O[C@H]4C[C@H](OC)[C@@H](NC)[C@H](C)O4)[C@H](C)O3)[C@@H](C)/C=C/C=C3\CO[C@@H]4[C@H](O)C(C)=C[C@@H](C(=O)O1)[C@]34O)O2	Hepatocyte nuclear factor 6 (Homo sapiens) (UniProt Q9UBC0)	class 0
CCOP(=O)(SC(C)CC)N1CCSC1=O (configuration not stated)	Hepatocyte nuclear factor 6 (Homo sapiens) (UniProt Q9UBC0)	class 0
COP(=O)(OC)SCn1c(=O)oc2cc(Cl)cnc21	Hepatocyte nuclear factor 6 (Homo sapiens) (UniProt Q9UBC0)	class 0
CCOP(=O)(NC(C)C)Oc1ccc(SC)c(C)c1 (configuration not stated)	Hepatocyte nuclear factor 6 (Homo sapiens) (UniProt Q9UBC0)	class 0
O=c1ccc(=O)[nH][nH]1	Hepatocyte nuclear factor 6 (Homo sapiens) (UniProt Q9UBC0)	class 0
CCC(=O)Nc1ccc(Cl)c(Cl)c1	Hepatocyte nuclear factor 6 (Homo sapiens) (UniProt Q9UBC0)	class 0
FC(F)C(F)(F)OCC(Cn1cncn1)c1ccc(Cl)cc1Cl (configuration not stated)	Hepatocyte nuclear factor 6 (Homo sapiens) (UniProt Q9UBC0)	class 0
C=C(C)[C@H]1Cc2c(ccc3c2O[C@@H]2COc4cc(OC)c(OC)cc4[C@@H]2C3=O)O1	Hepatocyte nuclear factor 6 (Homo sapiens) (UniProt Q9UBC0)	class 0
CCOP(=S)(OCC)Oc1ccc([N+](=O)[O-])cc1	Hepatocyte nuclear factor 6 (Homo sapiens) (UniProt Q9UBC0)	class 0
CC(=NC#N)N(C)Cc1ccc(Cl)nc1	Hepatocyte nuclear factor 6 (Homo sapiens) (UniProt Q9UBC0)	class 0
CON=C(C(=O)OC)c1ccccc1CON=C(C)c1cccc(C(F)(F)F)c1	Hepatocyte nuclear factor 6 (Homo sapiens) (UniProt Q9UBC0)	class 0
CCCSP(=O)(OCC)SCCC	Hepatocyte nuclear factor 6 (Homo sapiens) (UniProt Q9UBC0)	class 0
CC(C)N(C(=O)SCC(Cl)=C(Cl)Cl)C(C)C	Hepatocyte nuclear factor 6 (Homo sapiens) (UniProt Q9UBC0)	class 0
CC1=NNC(=O)N(/N=C/c2cccnc2)C1	Hepatocyte nuclear factor 6 (Homo sapiens) (UniProt Q9UBC0)	class 0
CNc1cnn(-c2cccc(C(F)(F)F)c2)c(=O)c1Cl	Hepatocyte nuclear factor 6 (Homo sapiens) (UniProt Q9UBC0)	class 0
C#CCC1=C(C)C(OC(=O)C2C(C=C(C)C)C2(C)C)CC1=O (configuration not stated)	Hepatocyte nuclear factor 6 (Homo sapiens) (UniProt Q9UBC0)	class 1
CC(Oc1cccc(Cl)c1)C(=O)O (configuration not stated)	Hepatocyte nuclear factor 6 (Homo sapiens) (UniProt Q9UBC0)	class 0
C[N+]1(C)CCCCC1	Hepatocyte nuclear factor 6 (Homo sapiens) (UniProt Q9UBC0)	class 0
Cc1nn(-c2cc(NS(C)(=O)=O)c(Cl)cc2Cl)c(=O)n1C(F)F	Hepatocyte nuclear factor 6 (Homo sapiens) (UniProt Q9UBC0)	class 0
CCNc1nc(Cl)nc(NC(C)(C)C#N)n1	Hepatocyte nuclear factor 6 (Homo sapiens) (UniProt Q9UBC0)	class 0
CCOC(=O)COc1cc(-c2nn(C)c(OC(F)F)c2Cl)c(F)cc1Cl	Hepatocyte nuclear factor 6 (Homo sapiens) (UniProt Q9UBC0)	class 0
CCC(=NOC/C=C/Cl)C1=C(O)CC(C2CCOCC2)CC1=O (configuration not stated)	Hepatocyte nuclear factor 6 (Homo sapiens) (UniProt Q9UBC0)	class 0
CC(C)=CC1C(C(=O)OCN2C(=O)C3=C(CCCC3)C2=O)C1(C)C (configuration not stated)	Hepatocyte nuclear factor 6 (Homo sapiens) (UniProt Q9UBC0)	class 0
COP(=O)(NC(C)=O)SC (configuration not stated)	Hepatocyte nuclear factor 6 (Homo sapiens) (UniProt Q9UBC0)	class 0
CN(C)[C@@H]1C(=O)C(C(N)=O)=C(O)[C@@]2(O)C(=O)C3=C(O)c4c(O)cccc4[C@@](C)(O)[C@H]3[C@H](O)[C@@H]12	Hepatocyte nuclear factor 6 (Homo sapiens) (UniProt Q9UBC0)	class 0
Nc1nc(N)nc(NC2CC2)n1	Hepatocyte nuclear factor 6 (Homo sapiens) (UniProt Q9UBC0)	class 0
COc1cc(OC)nc(Sc2cccc(Cl)c2C(=O)O)n1	Hepatocyte nuclear factor 6 (Homo sapiens) (UniProt Q9UBC0)	class 0
COP(=O)(OC)OC(Br)C(Cl)(Cl)Br (configuration not stated)	Hepatocyte nuclear factor 6 (Homo sapiens) (UniProt Q9UBC0)	class 0
CSc1nc(NC(C)C)nc(NC(C)C)n1	Hepatocyte nuclear factor 6 (Homo sapiens) (UniProt Q9UBC0)	class 0
O=C(O)c1cc(Oc2ccc(C(F)(F)F)cc2Cl)ccc1[N+](=O)[O-]	Hepatocyte nuclear factor 6 (Homo sapiens) (UniProt Q9UBC0)	class 0
CCCCSP(=O)(SCCCC)SCCCC	Hepatocyte nuclear factor 6 (Homo sapiens) (UniProt Q9UBC0)	class 0
CCOP(=S)(OCC)OC(Cl)C(Cl)(Cl)Cl (configuration not stated)	Hepatocyte nuclear factor 6 (Homo sapiens) (UniProt Q9UBC0)	class 0
CCCCN(CC)c1c([N+](=O)[O-])cc(C(F)(F)F)cc1[N+](=O)[O-]	Hepatocyte nuclear factor 6 (Homo sapiens) (UniProt Q9UBC0)	class 0
CC(C)[C@H](C(=O)O[C@H](C#N)c1cccc(Oc2ccccc2)c1)c1ccc(Cl)cc1	Hepatocyte nuclear factor 6 (Homo sapiens) (UniProt Q9UBC0)	class 0
CCc1cnc(C2=NC(C)(C(C)C)C(=O)N2)c(C(=O)O)c1 (configuration not stated)	Hepatocyte nuclear factor 6 (Homo sapiens) (UniProt Q9UBC0)	class 0
CN1COCN(Cc2cnc(Cl)s2)C1=N[N+](=O)[O-]	Hepatocyte nuclear factor 6 (Homo sapiens) (UniProt Q9UBC0)	class 0
CCC(CC)Nc1c([N+](=O)[O-])cc(C)c(C)c1[N+](=O)[O-]	Hepatocyte nuclear factor 6 (Homo sapiens) (UniProt Q9UBC0)	class 0
CN(C)C(=O)Nc1cccc(C(F)(F)F)c1	Hepatocyte nuclear factor 6 (Homo sapiens) (UniProt Q9UBC0)	class 0
CCc1cccc(CC)c1N(COC)C(=O)CCl	Hepatocyte nuclear factor 6 (Homo sapiens) (UniProt Q9UBC0)	class 0
CCOC(=O)CC(SP(=O)(OC)OC)C(=O)OCC (configuration not stated)	Hepatocyte nuclear factor 6 (Homo sapiens) (UniProt Q9UBC0)	class 0
Nc1c(Cl)cc([N+](=O)[O-])cc1Cl	Hepatocyte nuclear factor 6 (Homo sapiens) (UniProt Q9UBC0)	class 0
CC(COc1ccc(Oc2ccccc2)cc1)Oc1ccccn1 (configuration not stated)	Hepatocyte nuclear factor 6 (Homo sapiens) (UniProt Q9UBC0)	class 0
COc1ccc(C(=CC(=O)N2CCOCC2)c2ccc(Cl)cc2)cc1OC	Hepatocyte nuclear factor 6 (Homo sapiens) (UniProt Q9UBC0)	class 0
CCOP(=S)(OCC)Oc1ccc2c(C)c(Cl)c(=O)oc2c1	Hepatocyte nuclear factor 6 (Homo sapiens) (UniProt Q9UBC0)	class 0
CC(C1CC1)C(O)(Cn1cncn1)c1ccc(Cl)cc1 (configuration not stated)	Hepatocyte nuclear factor 6 (Homo sapiens) (UniProt Q9UBC0)	class 0
CCOP(=O)(OCC)Oc1cc(C)nc(C(C)C)n1	Hepatocyte nuclear factor 6 (Homo sapiens) (UniProt Q9UBC0)	class 0
CN(C)NC(=O)CCC(=O)O	Hepatocyte nuclear factor 6 (Homo sapiens) (UniProt Q9UBC0)	class 0
